Test system: Plasmodium falciparum
test: Calibr Malaria Delayed Death Assay SOP
Type: functional, organism-based
Design: scale not given: in the data most compounds retested in dose-response had high values
assay_setup: concentration 4.99e-06 (unit not given; other assays of the set use mol/L)
Hit rate of the full screen: of about 38,000 compounds, about 1,200 (3.2%) showed an effect of 50% or more. The median lay at about -58%. For the sample, strong results were picked, then their nearest neighbours and some compounds at random.
// Percent Effect lookup, one value per entry

compound: O=C(O)C(F)(F)F.O=C(O)C(F)(F)F.c1cnc(N2CCOCC3(CCCN(CC4CCOCC4)C3)C2)nc1 (configuration not stated)
Percent Effect / %: -11.39
//
compound: CC(C)CN1C(=O)C2(CCN(Cc3ccsc3)C2)c2ccccc21.O=C(O)C(F)(F)F (configuration not stated)
Percent Effect / %: -33.32
//
compound: CO[C@H]1CCN(c2ncc(F)cn2)[C@@H]2CN(Cc3ccco3)C[C@H]12.O=C(O)C(F)(F)F.O=C(O)C(F)(F)F
Percent Effect / %: 62.54
//
compound: CO[C@@H]1CCN(Cc2ccccn2)[C@@H]2CN(Cc3ccco3)C[C@@H]21.O=C(O)C(F)(F)F.O=C(O)C(F)(F)F.O=C(O)C(F)(F)F
Percent Effect / %: 81.61
//
compound: CO[C@@H]1CCN(c2ncc(F)cn2)[C@@H]2CN(Cc3cccnc3)C[C@@H]21.O=C(O)C(F)(F)F.O=C(O)C(F)(F)F.O=C(O)C(F)(F)F
Percent Effect / %: -59.6
//
compound: Cn1cnc2c(N3CCCC3)nc(C3CCN(CC4CC4)CC3)cc21.O=C(O)C(F)(F)F.O=C(O)C(F)(F)F
Percent Effect / %: 68.79
//
compound: Cc1cnc(N2C[C@H]3CCN(CC4CC4)C[C@H]3C2)nc1.O=C(O)C(F)(F)F
Percent Effect / %: 63.65
